Target: human recombinant GSK-3β (Homo sapiens)
Assay: GSK-3β kinase assay, LANCE Ultra TR-FRET
Details: mean ± SD of at least three independent determinations; ATP near Km
// reported pIC50 per item
Please treat pIC50 as minus the base-10 logarithm of the molar concentration.

Examples with answers:
                                   molecule  measured_parameter  quantitative_readout
0  Nc1nc(-c2c[nH]c3ncccc23)cs1 [Compound I]               pIC50                  5.16
1  c1ccc(CCNc2nc(-c3c[nH]c4ncccc34)cs2)cc1 [Compound 31]               pIC50                  5.12

Next molecule, please.
# value of pIC50, human recombinant GSK-3β (Homo sapiens), item Br.CN(Cc1ccccc1)c1nc(-c2c[nH]c3ncccc23)cs1 [Compound 33] = 5.61

###

Test system: neurospheres (NPCs from the subventricular zone)
Test: Neurosphere growth analysis (NPC proliferation)
Assay type: cell-based, mice
Conditions: 0.1, 1, and 5 μM; 7 days
measured parameter: Neurosphere number (object count per image), neurogenesis

                                   molecule                   result
0  Br.Clc1cc(CNc2nc(-c3c[nH]c4ncccc34)cs2)ccn1 [Compound 28]  pronounced neurogenesis
1  Br.c1cnc2[nH]cc(-c3csc(NCc4ccncc4)n3)c2c1 [Compound 27]  pronounced neurogenesis
2  c1ccc(CNc2nnc(-c3c[nH]c4ncccc34)s2)cc1 [Compound 40]  pronounced neurogenesis

###

Target: FYNα (Homo sapiens)
Sequence (P06241 whole entry): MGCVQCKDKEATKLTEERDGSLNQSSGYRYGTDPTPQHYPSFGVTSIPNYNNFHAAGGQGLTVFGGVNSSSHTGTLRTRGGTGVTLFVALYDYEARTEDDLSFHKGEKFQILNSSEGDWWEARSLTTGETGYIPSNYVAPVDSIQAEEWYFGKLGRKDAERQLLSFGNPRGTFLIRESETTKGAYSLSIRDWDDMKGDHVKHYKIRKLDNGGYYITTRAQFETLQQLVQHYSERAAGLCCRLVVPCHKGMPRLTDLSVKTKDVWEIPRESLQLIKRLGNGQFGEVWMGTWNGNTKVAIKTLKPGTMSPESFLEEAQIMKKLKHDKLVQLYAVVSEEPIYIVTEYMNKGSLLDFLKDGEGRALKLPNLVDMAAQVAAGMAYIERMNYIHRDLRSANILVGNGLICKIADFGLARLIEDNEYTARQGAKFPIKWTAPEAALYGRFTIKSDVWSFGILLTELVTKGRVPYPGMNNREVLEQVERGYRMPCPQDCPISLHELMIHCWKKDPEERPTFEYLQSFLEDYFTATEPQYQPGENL
// reported pIC50 per item
Please treat pIC50 as minus the base-10 logarithm of the molar concentration.

>>> df
                               entry_smiles  quantitative_readout
0  Br.Clc1cc(CNc2nc(-c3c[nH]c4ncccc34)cs2)ccn1                  6.15
1  Br.Cc1sc(NCc2ccncc2)nc1-c1c[nH]c2ncccc12                  6.70

Next compound, please.
Value of pIC50 reported for the compound Br.Cc1sc(NCc2ccccc2)nc1-c1c[nH]c2ncc(Br)cc12 is 7.30

###

// reported inhibition at 50 µM per item
Biological target: human recombinant GSK-3β (Homo sapiens, UniProt P49841)
Sequence (P49841 whole entry): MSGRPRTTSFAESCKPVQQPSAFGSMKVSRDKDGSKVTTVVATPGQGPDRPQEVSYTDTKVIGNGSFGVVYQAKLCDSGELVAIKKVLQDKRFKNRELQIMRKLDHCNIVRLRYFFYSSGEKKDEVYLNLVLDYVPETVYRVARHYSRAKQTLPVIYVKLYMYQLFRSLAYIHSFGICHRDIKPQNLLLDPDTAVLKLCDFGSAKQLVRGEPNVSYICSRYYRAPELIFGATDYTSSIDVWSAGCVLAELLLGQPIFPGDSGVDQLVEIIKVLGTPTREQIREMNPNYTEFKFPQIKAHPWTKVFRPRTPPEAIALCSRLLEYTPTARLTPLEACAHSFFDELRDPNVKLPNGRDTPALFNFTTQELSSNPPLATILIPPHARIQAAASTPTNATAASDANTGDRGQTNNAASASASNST
Assay: GSK-3β kinase assay, LANCE Ultra TR-FRET
Assay type: biochemical
Conditions: 50 μM; mean ± SD; n.i. = no inhibition
Give just the number in %; leave the unit off.

Examples with answers:
>>> df
                               entry_smiles  units_symbol  quantitative_readout
0        Br.CCCCNc1nc(-c2c[nH]c3ncccc23)cs1             %                  54.9
1   Br.Cn1cc(-c2csc(NCc3ccccc3)n2)c2cccnc21             %                   9.8
2              CNc1nc(-c2c[nH]c3ncccc23)cs1             %                  65.8
3  Br.COc1ccc(Nc2nc(-c3c[nH]c4ncccc34)cs2)cc1             %                  34.6
4  Br.Clc1ccc(Nc2nc(-c3c[nH]c4ncccc34)cs2)cc1             %                  14.8
5  Br.c1cnc2[nH]cc(-c3csc(NC4CCCCC4)n3)c2c1             %                  37.4
6     Clc1ccccc1Nc1nc(-c2c[nH]c3ncccc23)cs1             %                  32.7
7  Br.C=CCn1cc(-c2csc(NCc3ccccc3)n2)c2cccnc21             %                     4
8  Br.O=[N+]([O-])c1ccc(Nc2nc(-c3c[nH]c4ncccc34)cs2)cc1             %                     8
9           C=CCNc1nc(-c2c[nH]c3ncccc23)cs1             %                  61.6

Next molecule, please.
Value of inhibition at 50 µM reported for the molecule Br.Cc1ccc(Nc2nc(-c3c[nH]c4ncccc34)cs2)cc1 is 50.1

###

Tested on: primary rat cerebellar granule neurons (CGNs)
Test: Neurotoxicity, cell viability in CGNs (MTT)
Format: cell-based
Details: 5, 10, and 25 μM, 24 h
measured parameter: Neurotoxicity on CGNs (cell viability compared to control)

Examples with answers:
>>> df
                               entry_smiles          result
0  Br.CN(C)c1ccc(CNc2nc(-c3c[nH]c4ncccc34)cs2)cc1  not neurotoxic
1    c1ccc(CNc2nnc(-c3c[nH]c4ncccc34)s2)cc1  not neurotoxic
2  Br.Cc1sc(NCc2ccccc2)nc1-c1c[nH]c2ncc(Br)cc12  not neurotoxic
3  Br.Cc1sc(NCc2ccnc(Cl)c2)nc1-c1c[nH]c2ncccc12  not neurotoxic

Next compound, please.
# value of Neurotoxicity on CGNs (cell viability compared to control), primary rat cerebellar granule neurons (CGNs), item Br.Clc1cc(CNc2nc(-c3c[nH]c4ncccc34)cs2)ccn1 = not neurotoxic

###

// reported pIC50 per item
Biological target: FYNα (Homo sapiens)
Please treat pIC50 as minus the base-10 logarithm of the molar concentration.

Examples with answers:
                               entry_smiles  measured_parameter  quantitative_readout
0    c1cnc2[nH]cc(-c3csc(NCc4cnccn4)n3)c2c1               pIC50                  5.13
1   Nc1ccc(CNc2nc(-c3c[nH]c4ncccc34)cs2)cc1               pIC50                  4.73
2  Br.c1cnc2[nH]cc(-c3csc(NCc4ccncc4)n3)c2c1               pIC50                  5.46

# value of pIC50, FYNα (Homo sapiens), item Br.Cc1sc(NCc2ccnc(Cl)c2)nc1-c1c[nH]c2ncccc12 = 7.36

# value of pIC50, FYNα (Homo sapiens), item Clc1ccccc1CNc1nc(-c2c[nH]c3ncccc23)cs1 = 5.27

# value of pIC50, FYNα (Homo sapiens), item c1cnc(CNc2nc(-c3c[nH]c4ncccc34)cs2)nc1 = 4.82

###

Molecular target: human recombinant GSK-3β (Homo sapiens, UniProt P49841)
Assay: GSK-3β kinase assay, LANCE Ultra TR-FRET
Format: biochemical
Settings: 50 μM; mean ± SD; n.i. = no inhibition
measured parameter: inhibition at 50 µM
Note: state the figure and append the unit.

Examples with answers:
In [3]: df
Out[3]:
                                   compound  result
0  COCCNc1nc(-c2c[nH]c3ncccc23)cs1 [Compound 3]   58.8%
1  c1ccc(Nc2nc(-c3c[nH]c4ncccc34)cs2)nc1 [Compound 10]   24.1%

Next compound, please.
Value of inhibition at 50 µM reported for the compound Br.c1ccc2c(Nc3nc(-c4c[nH]c5ncccc45)cs3)cccc2c1 [Compound 8] is 5.1%
